Dear all, I have gathered published log10(IC50) values for IRAK4 (Homo sapiens (Human), UniProt Q9NWZ3); the list follows.
Log scale reminder: IC50 in nM, then log10 taken.

{"molecule": "CC(C)Oc1nc2nc([C@@]34CC[C@@](C)(C3)OC4)cn2cc1C(=O)Nc1cccn([C@H]2CC23CC3)c1=O (single isomer, unassigned)", "log10(IC50)": 0.43}
{"molecule": "CC(C)(O)[C@H](F)CNC(=O)c1cnc(-c2ccc3cc(C#N)cnn23)cc1N[C@H]1CC[C@H](n2cc(C3CC3)nn2)CC1", "log10(IC50)": 0.00}

Look up and report measured log10(IC50) (IRAK4 (Homo sapiens (Human), UniProt Q9NWZ3)) for the following molecule: CC(C)Nc1c(C(=O)NC2CCN(C(=O)CC(F)(F)F)CC2)cnc2ccc(-c3cn[nH]c3)cc12
1.39

Provide measured log10(IC50) on IRAK4 (Homo sapiens (Human), UniProt Q9NWZ3) for Nc1cc(-c2ccc3ncnc(N[C@H]4CC[C@H](N5CCOCC5)CC4)c3c2)ccn1 please.
0.48

Give measured log10(IC50) for CC(C)Nc1cc(-c2cnc3cc(C#N)cnn23)ncc1-c1cc(C2CCOCC2)[nH]n1 (IRAK4 (Homo sapiens (Human), UniProt Q9NWZ3)).
0.70

Return reported log10(IC50) for target or system IRAK4 (Homo sapiens (Human), UniProt Q9NWZ3), item CC(C)(O)[C@H](F)CNC(=O)c1cnc(Nc2nc3ccnn3cc2F)cc1NC1CCC(F)C1 (stereo partly drawn) .
0.51

Under IRAK4 (Homo sapiens (Human), UniProt Q9NWZ3), report log10(IC50) for CC(C)(O)[C@H](F)CNC(=O)c1cnc(Nc2nc3scnc3cc2F)cc1NC1CCCC1F (stereo partly drawn)
0.23

Jot down log10(IC50) (IRAK4 (Homo sapiens (Human), UniProt Q9NWZ3)) of CCC(O)(CC)[C@H](F)CNC(=O)c1cnc(Nc2cc3scnc3cn2)cc1NC1CC1 .
1.32

Report its log10(IC50) with IRAK4 (Homo sapiens (Human), UniProt Q9NWZ3) as the test system: CC(=O)N1CC(n2cc(-c3cnc4ccc(-c5cn[nH]c5)cc4c3NC(C)C)nn2)C1
0.46
